system: U251 CNS; assay: NCI-60 one-dose screen, 48 h; conditions: 10 µM unless noted
Compounds without any hit were thinned out: in the full panel of roughly 83,000, 20% have a hit. The source made the active and inactive calls. Rule for the calls: active = growth percent below 10; inactive = the rest.
Parameter call: string, one of true (active), false (inactive)

Problem: What is the recorded call for this compound in the test? Cc1cc(N2CCSCC2)nc(NC2CCCC(Nc3ccnc4cc(Cl)ccc34)C2)n1 (centres undefined)
Result: true

Problem: What is the recorded call for this compound in the test? Cc1cc(C)nc(SC2=C(Nc3cccc(Cl)c3C)C(=O)N(Cc3ccccc3)C2=O)n1
Result: false

Problem: What is the recorded call for this compound in the test? COc1ccc(C(=O)COc2ccc(/C=C3\Oc4ccc(OC)cc4C3=O)cc2)cc1
Result: false

Problem: What is the recorded call for this compound in the test? COc1cc(-c2nn(C)nc2-c2cc3ccccc3s2)cc(OC)c1OC
Result: false

Problem: What is the recorded call for this compound in the test? C=CCSSc1ncnc2c1ncn2C1OC(CO)C(O)C1O (centres undefined)
Result: false

Problem: What is the recorded call for this compound in the test? Cc1ccc2oc(=O)cc(C3c4ccc([nH]4)C(c4cc(=O)oc5ccc(C)cc45)c4ccc([nH]4)C(c4cc(=O)oc5ccc(C)cc45)c4ccc([nH]4)C(c4cc(=O)oc5ccc(C)cc45)c4ccc3[nH]4)c2c1 (centres undefined)
Result: true

Problem: What is the recorded call for this compound in the test? CCc1c(Nc2ccccc2C)nc(N)[nH]c1=O
Result: false

Problem: What is the recorded call for this compound in the test? COc1ccc2c(c1)C(=O)/C(=C/c1ccccn1)CC2
Result: false

Problem: What is the recorded call for this compound in the test? COc1ccc(-c2n[nH]nc2-c2csc3ccccc23)cc1OC
Result: false

Problem: What is the recorded call for this compound in the test? COc1cc(-c2nn(-c3ccc(Br)cc3)cc2C(=O)O)ccc1O
Result: false

Problem: What is the recorded call for this compound in the test? Cn1cc(C(=O)c2nc(-c3c[nH]c4ccc(F)cc34)no2)c2cc(F)ccc21
Result: false

Problem: What is the recorded call for this compound in the test? COc1ccc(/C=C/c2nc(-c3n[nH]c(=O)n3-c3ccccc3)c3ccccc3n2)cc1
Result: false

Problem: What is the recorded call for this compound in the test? O=C(O)c1ccc(NC(=O)c2ccc(-c3cccc([N+](=O)[O-])c3)o2)cc1
Result: false

Problem: What is the recorded call for this compound in the test? CN(C)CCN1C(=O)c2cccc3c(N)ccc(c23)C1=O
Result: false

###

System: SNB-75 CNS
Experiment: NCI-60 one-dose screen, 48 h
Details: 10 µM unless noted
Experimental: Growth inhibition of the SNB-75 human tumor cell line is measured as a screen for anti-cancer activity. Cells are grown in 96 well plates and exposed to the test compound for 48 hours. Compounds are tested at a single concentration, which is 10^-5 M for most compounds. The reported endpoint is percent growth (GI% or GIPRCNT), where numbers from 0 - 100% represent growth inhibition, and numbers from -100% - 0 represent cell death. For example, a value of 40 represents 60% growth inhibition. […]
The panel holds about 83,000 compounds, 20% with a hit somewhere; the sample as a whole holds those more often. Active and inactive are the calls of the source. The calls were made as follows: active = growth percent below 10; inactive = the rest.
Parameter call: string, one of Y = active, N = inactive

NCCNc1nc(Nc2ccc(-c3nc4ccccc4[nH]3)cc2)c2cn[nH]c2n1 = N
FC(F)(F)c1nc2c(NCc3ccc(-c4ccccc4)cc3)cccc2[nH]1 = N
OCCNc1nccc(N2CCN(c3ccnc4cc(Cl)ccc34)CC2)n1 = N

Let us examine a further case.
Problem: What is the recorded call for this molecule in the test? O=C1c2cccc3cccc(c23)C(=O)N1CCCCCN1CCN(CCCCCOc2ccc(-c3nc4ccc(N5CCOCC5)cc4[nH]3)cc2)CC1
Result: N
